- Assay name: soluble on expression in E. coli; label from the status in PepcDB or PDB records
Recorded endpoint: soluble on expression in E. coli

1. EPQVRESLGRDVMVVVDLSGSMAEPDFTSRTGEKISRLDAAKEVLTEFVQSRKGDRLGLVLFGDAAFVQTPFTADQKVWLELLNQTDVAMAGQSTHLGDAIGLAIKVFEQSDKSRGALEQDQNREKVAIVLTDGNDTGSFVEPIDAAKVAKAKGVRVHVIAMGDPETIGETALDMDTIHRIAKESGGEAFEALNRDELSAAYDEIGKLEPQLYESTTYRPKQSLHH | not soluble
2. MGSDKIHHHHHHMPLTMNKDVFITCAVTGSGSTQDRSPHVPRSPKQIAESAIEAARAGAAIVHCHVRDPESGAPSRDLSYYREVTDRIREADIDVVLNLTAGMGGDITFGSTDAPFPVDEAGTDMVGAAERVAHIADCLPEICTLDCGTMNFAEADYVMTNTPGMLRAMGRMMTDLGVKPEIEAFDTGHLWFAKELVKEGVLDSPALVQLCMGVPWGAPDDLNTFMAMVNNVPDNWTFSAFALGRNEMAYVAASVLAGGNVRVGLEDNLWLEKGVLATNAQLVEQAVGIIEGMGARVIGPDMVRETLGLTKQAPA | not soluble

---

- Assay name: soluble on expression in E. coli; label from the status in PepcDB or PDB records
Recorded endpoint: soluble on expression in E. coli

1. MAHHHHHHMSPVLVPTACEDWSLNIDDESAKRFWWNNTYSITLWEETLNIEQQAEKITDGDVWSKFIDLQLRCAFKICSICHSPEGNADMKICCYCGNTVHENCSEPAAPEQIMWKPANLAYVEHMRACFQCQAVNYKEPL | not soluble
2. MGIHRLWKRFTIDCSGVRRGQTVLDLAGGTGDLTAKFSRLVGETGKVVLADINESMLKMGREKLRNIGVIGNVEYVQANAEALPFPDNTFDCITISFGLRNVTDKDKALRSMYRVLKPGGRLLVLEFSKPIIEPLSKAYDAYSFHVLPRIGSLVANDADSYRYLAESIRMHPDQDTLKAMMQDAGFESVDYYNLTAGVVALHRGYKLEHHHHHH | not soluble
3. MGSDKIHHHHHHMNAVISILVENTTPSPSLIGEYGFSALVEVDERKILFDTGSSDALFKNAENLGVKLEEVEALVISHGHFDHTSAVIPFLQRFGPKKLYLHPGIFSQRYLQGKKGLGPNIGCPFEPEDLVKNGAEIIFIDSFSEIMPGVFISGEIPRRNSFENTGGNFKVATHHGLLEDRLLDDMALLVDHPEGLIIISGCAHSGMINTIEYIREKTGRSKILAFIGGTHLITASEDRLAQTIAVLKMMDIEKIAVGHCTGFYAAARLLNELGPRVIKADTGMSFSF | not soluble

---

- Assay name: soluble on expression in E. coli; label from the status in PepcDB or PDB records
Recorded endpoint: soluble on expression in E. coli

Solved cases below.
1. MLLALKGIRKVYRMGEVAFSALKGVDLEVEEGEMLAIMGPSGSGKSTLLHILGLLDRPTEGEYVLMDRPTSRLAEDERAFLRNRFLGFVFQAFFLLPRLSALENVEVPLAYAGVPPGTRRRRALELLERVGLLEKANNLPNQLSGGQRQRVAIARALALNPPLLLADEPTGALDTRTGEEILALFQELNREGTTVILVTHEPHVAEKTNRIVRVLDGEIVADERRHHG | soluble
2. MKKVGEYFLDPNLDPGRDHILYKDDEHMVIYLGTQEGLEDVDVNSYLIVSKGKGILIDPGGYKIFTKVLANVSKYIDPKDIEYIYMCHQDPDVAGSIPLWREISNAKIIIHWLWVRFLPHFGFENIRGYAHELQDEGETLNFGATTLEFIPAHFLHSPGHFTVYDRRSKFLFSGDIGIAFPDERYLVVENMERHIQYMRPLHERLMASNKALRLWVNKVRGLDIEAILPQHGAIIPRRFVPRFLDWLENLKVGVDLMR | soluble
3. MLTVDQVKELVGEIKDPIIDVPLKETEGIVEVSIKEEKEHVSVKLAMAQLGGAPQLDLQMAVVNALKENGAKTVGIRFETLPEEKVNQFKPKEENKPKTIEGLLSQNNPVEFIAIASGKGGVGKSTVAVNLAVALAREGKKVGLVDADIYGFSVPDMMGIDEKPGIKGKEVIPVERHGVKVISMAFFVEENAPVIWRGPMLGKMLTNFFTEVKWGDIEYLILDLPPGTGDVALDVHTMLPSSKEIIVTTPHPTAAFVAARAGAMAKHTDHSILGVIENMSYFESKETGNKEYVFGKGGGTKLADELNTQLLGELPLEQPSWNPKDFAPSIYQSDDRLGKIYSSIAQKVIAATNKLEHHHHHH | soluble
4. MAHHHHHHMLRNALSCFLEQLELARLTETLPSNIDYAELVAMVQQRLQGAPGKTLGVFEHLRAKEIRLPEPDNPDYAVASMSAPLTVFLFDIEGTTTPLPFVQKVLMPLAESRVEAYMAAHFPADQAFVDLLTAAAERPSSPLAKAQTAYSKAFTDALATSGARDWKDEAANEVTRSDFCAFFHHQIKRGADHAAVKVVQAAIWAEVFAEGKLQSPVFPDVNTFFRFVGGPAMAERTRIALYSSGSVAAQKLVMGHTSYGDLNPFITAYFDPLLVGTKLMPKSYMKIRTLLVEQLDIPPESMHIVFVTDNTSEASAAETSGAVESAILCVRPLNDWITFDTMLSINVPYIMSFTQLMQRNCVVDMAKLVSDTKECIKQHNIS | soluble
5. MPLPDFHVSEPFTLGIELEMQVVNPPGYDLSQDSSMLIDAVKNKITAGEVKHDITESMLELATDVCRDINQAAGQFSAMQKVVLQAATDHHLEICGGGTHPFQKWQRQEVCDNERYQRTLENFGYLIQQATVFGQHVHVGCASGDDAIYLLHGLSRFVPHFIALSAASPYMQGTDTRFASSRPNIFSAFPDNGPMPWVSNWQQFEALFRCLSYTTMIDSIKDLHWDIRPSPHFGTVEVRVMDTPLTLSHAVNMAGLIQATAHWLLTERPFKHQEKDYLLYKFNRFQACRYGLEGVITDPHTGDRRPLTEDTLRLLEKIAPSAHKIGASSAIEALHRQVVSGLNEAQLMRDFVADGGSLIGLVKKHCEIWAGD | soluble

Below are some sequences; for each one, tell me its soluble on expression in E. coli.
1. SAANVAHGLQQNVLYVDSNGGLTASRLLQLLQAKTQDEEEQAEALRRIQVVHAFDIFQMLDVLQELRGTVAQQVTGSSGTVKVVVVDSVTAVVSPLLGGQQREGLALMMQLARELKTLARDLGMAVVVTNHITRDRDSGRLKPALGRSWSFVPSTRILLDTIEGAGASGGRRMACLAKSSRQPTGFQEMVDIGTWGTSEQSATLQGDQT
2. MSDVAEEKAEFLVIRTYGSESFRKECADLIEKELHKLNATIARVPVGEFVAYAENAVKNETDSEAVGSSSVKRENSANDSPANTNDVDIVSSPVKRGRGRKAKNPSADADVNDTGSSPVKKGRGRPIKNPSADAGSPLVKKGRGRRAQTPAADTDAIDTASSPVKKGRGRPAKNPSADAGSPLVKKGRGRQAKNLAADTDAIDTASSPVKKGRGRPLKKTAAEADVNGLGSPSANRITGCPPSTKVSNQSSPPEPAVNESEEADEPVLKRGRSVKQPKDESESDDEDAEKAPAAIPKKRGRPGKSAIDAFFDGSD

-- reply
soluble
soluble

Below are some sequences; for each one, tell me its soluble on expression in E. coli.
1. GPGSMGYRLLRDNVFKASCAKDSDELRARREPTMLYKEDQLVAPASGTERRYTLVLDLDETVIYAREGPLYARAYLKELLSFIRKNFEVIVWTAGEREYAECILEEINIRNTVRHLIHRHKTWFSFDDYTKDLTKLGRNLDYVIIIENSPDCVRTNPQNGIIVDDFRVSQTPPMEEAEAAWEGDGNNRERKAGSRSDSKTRRQVTDRTLLLLREVLKAMVESGETVPDFLAKCPLLTQRRVIGSDGSQIQTYHLGTRRKRGIPQLCASSPKRRRVTKESAPGATCTS
2. GSHMSSPVNEEENSQRISTLHHQTMPSDLTQDEFTQLSQSIAEFHTYQLGNGRCSSLLAQRIHAPPETVWSVVRRFDRPQIYKHFIKSCNVSEDFEMRVGCTRDVNVISGLPANTSRERLDLLDDDRRVTGFSITGGEHRLRNYKSVTTVHRFEKEEEEERIWTVVLESYVVDVPEGNSEEDTRLFADTVIRLNLQKLASITEAMNRN

-- reply
soluble
soluble
